FYI, the data here is from PubChem BioAssay (NCI).

Tested on: EKVX NSCLC
Assay: NCI tumour cell line growth inhibition, 48 h
measure_name: TGI (µM)
Just the number please, in µM, no unit attached.

1. CC(C)c1ccc(Nc2ccc3c(OCCCN4CCN(C)CC4)cccc3n2)cc1	28.3

Then this compound:
GET /values?readout=TGI&system=EKVX NSCLC&item= COc1cc(Nc2cn[nH]c2-c2ccc(Cl)cc2)cc(OC)c1OC
52.7

====

Test system: SW-620 colon
Test: NCI tumour cell line growth inhibition, 48 h
measure_name: GI50

Use these answered entries as a reference point.
1) CNCCNc1c2c(c(NCCNC)c3c(CN(C)C)c[nH]c13)C(=O)c1ccccc1C2=O	1310 nM
2) Cc1ccc2c(n1)C(=O)c1[nH]c3ccccc3c1C2=O	2970 nM
3) Cn1c(=O)c2c(nc(Nc3cc(=O)[nH]c(=O)[nH]3)n2Cc2ccccc2)n(C)c1=O	> 100000 nM
4) CC(C)=C[C@@H]1C[C@H](C)[C@H]2CC[C@H](C)C3=C2[C@](O)(OC3=O)[C@]1(C)O	> 100000 nM

Then this compound:
What does the data say about its GI50? Entry: Ic1ccc(Nc2nc3nonc3nc2Nc2ccc(I)cc2)cc1
296 nM
